Ref: PubChem BioAssay (NCI)

Tested on: OVCAR-5 ovarian
experimental details: NCI tumour cell line growth inhibition, 48 h
readout label: TGI

In the examples that follow, each entry is paired with its recorded TGI.
{"molecule": "COC(=O)[C@]1(C)[C@H]2C[C@H]3O[C@H]4[C@H](O)[C@@H](O)OC(CC(O)C(C5=CC(=O)OC5)C(C5=CC(=O)OC5)C(O)CC56CCCCC7[C@@H](C)[C@H](C[C@H]8[C@](C)(C(=O)OC)[C@H](O)CC[C@]78C)O[C@H]([C@@H](O)[C@H](O)O5)[C@H]6O)(CCCCC([C@@H]3C)[C@]2(C)CC[C@@H]1O)[C@H]4O (stereo partly drawn)", "tested target": "OVCAR-5 ovarian", "TGI": "3.14 µM"}
{"molecule": "CN(C)c1ccc2c(c1)OC(N)=C(C#N)C2c1ccc2c(c1)CCCN2C (stereo not drawn)", "tested target": "OVCAR-5 ovarian", "TGI": "> 100 µM"}
{"molecule": "CCCCC1Cc2cc(OC)ccc2-c2n1c1cc(OC)ccc1[n+]2C (stereo not drawn) (tested in a mixture with another compound)", "tested target": "OVCAR-5 ovarian", "TGI": "68.2 µM"}

For each entry beneath this line, provide reported TGI.
1. Cc1nn2c(-c3nc4cc(Cl)c(Cl)cc4[nH]3)c(-c3ccc(F)cc3)nc2s1
2. Cn1c(CC(O)c2nc3ccccc3n2C)nc2ccccc21 (stereo not drawn)
3. CCN(CCCl)c1cc(CN(C)C)cc(NC(=O)c2cc(C(=O)Nc3cc(CN(C)C)cc(N(CC)CCCl)c3)n(C)n2)c1
4. O=S(=O)(NCCCNc1nccc(-c2c(-c3cccc(F)c3)nc3occn23)n1)c1cccc2ccccc12
5. Oc1ccc(-c2[nH]c3ccccc3c2-c2nc3ccccc3o2)cc1
6. O=C1c2ccccc2/C=C\C(c2ccccc2)=N/N1c1ccccc1Cl
7. O=C1NC2=NN=C(c3ccc(Br)cc3)CN2NC12c1ccccc1-c1ccccc12

1. > 100 µM
2. > 74.3 µM
3. 9.36 µM
4. > 100 µM
5. 17.2 µM
6. > 100 µM
7. > 100 µM

For each entry beneath this line, provide reported TGI.
1. CCCCCC(/C=C/[C@@H]1[C@@H](C(O)CCCCCC(=O)OC)C(=O)C[C@H]1O[Si](C)(C)C(C)(C)C)OCOCCOC (stereo partly drawn)
2. COc1ccc(C(=O)/C=C/c2ccc(OCc3ccccc3)c(OC)c2)cc1OC
3. CC1=NNC(=O)[C@H]2[C@H]1CCC1[C@@H]2CC[C@]2(C)[C@@H](O)CC[C@@H]12 (stereo partly drawn)
4. Clc1cccc(C2SCc3nc4ccccc4n32)c1 (stereo not drawn)
5. CC(C)C/C(=N\NC(=O)c1ccncc1)c1cc(Cl)ccc1O

1: 48 µM; 2: > 100 µM; 3: > 100 µM; 4: 95.6 µM; 5: 38.9 µM

For each entry beneath this line, provide reported TGI.
1. CC(N)=O.[Cl][Pt][Cl].[NH-]c1ccn(C2OC(CO)C(O)C2O)c(=O)n1 (stereo not drawn)
2. CON(C)C(=O)C(C)NC(=O)OC(C)(C)C (stereo not drawn)
3. O=C([O-])C1([n+]2c(-c3ccccc3)cc(-c3ccccc3)cc2-c2ccccc2)CC1
4. CCC1=C(c2ccc(OC)cc2)CC[C@]2(CCNC2=O)[C@@H]1C
5. O=S(=O)(Cc1ccccc1)SCc1ccccc1
6. CC(=O)N1c2ccccc2[C@H]2CCc3c([nH]c4ccccc34)[C@H]21
7. COc1ccc(/C=N/n2c(Cc3ccccc3)n[nH]c2=O)cc1

> 100 µM
> 100 µM
> 100 µM
> 100 µM
> 100 µM
> 100 µM
> 100 µM

For each entry beneath this line, provide reported TGI.
1. COCCOCCOCCC(=O)NC1CC2CCC1(C)C2(C)C (stereo not drawn)
2. CCCCOCCOCCOC1=C(Cl)C(=O)c2c(O)ccc(O)c2C1=O
3. O=C(Nc1cccc(-n2cc(-c3ccncc3)c(-c3ccc(O)c(Cl)c3)n2)c1)Nc1ccc(Cl)c(Cl)c1
4. CC/C(=C(/c1ccc(/C=C/C(=O)O)cc1)c1ccc2[nH]ncc2c1)c1ccc(F)cc1Cl
5. CCN(CC)CCS(=O)(=O)CCNc1ccnc2cc(Cl)ccc12
6. O=C(Nc1nc2c(s1)CCc1c-2c(Br)n(Cc2ccccc2)c1Br)c1ccccc1

> 100 µM
5.33 µM
55.9 µM
35.9 µM
> 100 µM
> 100 µM

====

Test system: NCI-H460 lung
experimental details: NCI tumour cell line growth inhibition, 48 h
For each entry below, report its TGI value.

{"compound": "Cc1cc(-c2ccco2)cc(C)c1/C=C/c1cncc(-c2nn[nH]n2)c1", "TGI": "> 25 µM"}
{"compound": "COc1cc(OC)c(/C=C/C(=O)c2c(N)cc(OC)cc2OC)c(OC)c1", "TGI": "> 51.2 µM"}

For each entry beneath this line, provide reported TGI.
1. Nc1ccn([C@@H]2S[C@H](CO)[C@@H](O)[C@@H]2F)c(=O)n1
2. COc1cccc2c1[C@H]1OC(=O)NC1CCCCC2 (stereo partly specified)

1: > 100 µM; 2: > 100 µM

For each entry beneath this line, provide reported TGI.
1. CC1CCN(c2cc(-c3cc4ccccc4o3)oc(=O)c2C#N)CC1
2. COc1cccc(N2C(=O)C3CC(CC(C)(C)C)c4c([nH]c5ccccc45)C3C2=O)c1 (stereo unspecified)

["> 100 µM", "> 10 µM"]

====

Tested on: UACC-62 melanoma
experimental details: NCI tumour cell line growth inhibition, 48 h; in the data active = GI50 below about 0.43 µM; inactive = the rest
Reply using exactly one outcome from true (1) (active), false (0) (inactive)

{"molecule": "CCOC(=O)C1=CSC2=NC3=C(CCC/C3=C\\c3cc(OC)c(OC)c(OC)c3)C(c3cc(OC)c(OC)c(OC)c3)N12 (stereo not given)", "tested target": "UACC-62 melanoma", "answer label": "false (0)"}

Hi, do you know how CC1=NN(c2nc(N)nc(/C=C\c3ccccc3)n2)C(C)(C)C1 came out in this test?
false (0)

Hi, do you know how COc1ncc2cc1NS(=O)(=O)c1cccc(c1)C(=O)NCC1=CC=C(S1)c1ncnc3c1SC2=C3C came out in this test?
true (1)

Hi, do you know how Nc1n[nH]c2ccc([C@@H]3Nc4c(F)cc5[nH]ncc5c4[C@H]4C5CCC(C5)[C@@H]34)cc12 (stereo not given in full) came out in this test?
true (1)

Hi, do you know how CCN(CCNc1ccc(C)c2sc3cc(Cl)ccc3c(=O)c12)CC(C)(C)O came out in this test?
false (0)

====

Tested on: HL-60(TB) leukemia
experimental details: NCI tumour cell line growth inhibition, 48 h
For each entry below, report its TGI value.

In the examples that follow, each entry is paired with its recorded TGI.
{"compound": "COC(=O)[C@]1(C)CCCC2(C)C3=C(CCC21)CC1(CC3)SCCS1 (stereo partly drawn)", "TGI": "> 10 µM"}
{"compound": "Cc1cn2c(/C=C3/C(=O)Nc4ccc(C(=O)O)cc43)c(C)nc2s1", "TGI": "> 100 µM"}
{"compound": "CC1CCN(c2cc(-c3cc4ccccc4o3)oc(=O)c2C#N)CC1", "TGI": "> 100 µM"}
{"compound": "c1ccc2c(c1)[O][Sn][O]2", "TGI": "6.37 µg/mL"}
{"compound": "O=c1[nH]c(=O)n(C2CC(O)C(O)C(CO)O2)cc1F (stereo not drawn)", "TGI": "> 100 µM"}

For each entry beneath this line, provide reported TGI.
1. Cn1c(SCc2c[nH]c3ccccc23)nnc1-c1ccc(Cl)cc1Cl
2. CCN(CCCl)c1cc(CN(C)C)cc(NC(=O)c2cc(C(=O)Nc3cc(CN(C)C)cc(N(CC)CCCl)c3)n(C)n2)c1
3. CCOP(=O)(/C=C/n1cnc2c(=O)n(C(C)=O)c(N)nc21)OCC
4. Cc1cc2c(cc1C)[n+](=O)c(C(=O)/C=C/c1ccccc1[N+](=O)[O-])c(C)n2[O-]
5. CC(=O)Nc1sccc1S(=O)(=O)c1ccc(Cl)cc1
6. C/C(CC(=O)Nc1cccc(Cl)c1C)=N\N=C(N)N
7. Cc1cc(NS(=O)(=O)c2ccc(NC(=O)c3ccc4nc5ccccc5c(Nc5ccc(S(=O)(=O)Nc6cc(C)on6)cc5)c4c3)cc2)no1

1. 25.6 µM
2. 4.04 µM
3. > 100 µM
4. > 100 µM
5. > 100 µM
6. > 100 µM
7. > 50 µM

If you can, please state the reported TGI value of Nc1c(-c2nc3ccccc3s2)[n+]([O-])c2ccccc2[n+]1[O-] .
93.5 µM

====

Tested on: SN12C renal
experimental details: NCI tumour cell line growth inhibition, 48 h
For each entry below, report its TGI value.

In the examples that follow, each entry is paired with its recorded TGI.
{"smiles input": "CCCCOc1ccc(S(=O)(=O)/N=C(\\N)Nc2ccc(Cl)cc2)cc1", "TGI": "30.1 µM"}
{"smiles input": "COC(=O)C1=Nc2ccc(F)cc2/C1=C/c1sc(=S)[nH]c1O", "TGI": "> 26.3 µM"}
{"smiles input": "Cc1ccc(NC(=O)c2ccc(NC3=C(Cl)C(=O)N(Cc4ccccc4)C3=O)cc2)cc1Cl", "TGI": "20.5 µM"}
{"smiles input": "CCOc1cc(/C=C/C(=O)CC(=O)/C=C/c2ccc(OC(=O)CNCCN(CC)CC)c(OCC)c2)ccc1OC(=O)CNCCN(CC)CC", "TGI": "6.25 µM"}

If you can, please state the reported TGI value of CO[C@]12C[C@@H](CNC(=O)c3cc(Br)c[nH]3)O[C@H]1NC(=O)N2 .
> 100 µM
